- target: Toll-like receptor 7 (Mus musculus)
- Sequence (whole entry): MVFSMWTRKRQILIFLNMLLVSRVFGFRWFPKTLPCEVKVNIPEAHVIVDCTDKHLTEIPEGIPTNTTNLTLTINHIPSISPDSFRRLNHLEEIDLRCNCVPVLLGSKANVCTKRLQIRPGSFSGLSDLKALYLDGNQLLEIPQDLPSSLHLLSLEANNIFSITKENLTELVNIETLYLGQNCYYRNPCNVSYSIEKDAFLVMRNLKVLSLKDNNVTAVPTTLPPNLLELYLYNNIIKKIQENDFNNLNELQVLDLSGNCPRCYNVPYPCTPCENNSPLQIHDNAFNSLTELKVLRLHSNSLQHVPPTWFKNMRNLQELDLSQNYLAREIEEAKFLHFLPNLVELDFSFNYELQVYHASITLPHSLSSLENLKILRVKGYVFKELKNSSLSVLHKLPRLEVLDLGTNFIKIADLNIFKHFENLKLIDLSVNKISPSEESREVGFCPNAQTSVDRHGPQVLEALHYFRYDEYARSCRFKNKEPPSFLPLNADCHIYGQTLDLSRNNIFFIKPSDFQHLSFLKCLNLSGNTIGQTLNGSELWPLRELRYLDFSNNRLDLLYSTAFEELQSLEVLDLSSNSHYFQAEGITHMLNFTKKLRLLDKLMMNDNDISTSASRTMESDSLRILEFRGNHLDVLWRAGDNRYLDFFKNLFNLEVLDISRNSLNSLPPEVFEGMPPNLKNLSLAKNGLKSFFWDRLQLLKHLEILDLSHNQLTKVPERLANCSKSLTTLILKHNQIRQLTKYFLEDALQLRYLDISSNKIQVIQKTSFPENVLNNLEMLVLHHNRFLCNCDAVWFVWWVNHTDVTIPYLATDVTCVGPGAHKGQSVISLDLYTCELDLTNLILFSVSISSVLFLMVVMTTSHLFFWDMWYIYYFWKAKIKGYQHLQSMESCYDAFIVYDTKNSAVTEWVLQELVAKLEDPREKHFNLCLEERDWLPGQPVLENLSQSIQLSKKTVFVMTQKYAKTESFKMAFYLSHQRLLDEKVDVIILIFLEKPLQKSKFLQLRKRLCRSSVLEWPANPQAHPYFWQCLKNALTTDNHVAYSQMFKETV
- assay-protocol: Agonist activity at TLR7 in mouse RAW264.7 cells assessed as immunostimulatory activity by measuring increase in TNFalpha secretion incubated for 18 hrs by ELISA relative to 1V209
- Format: cell-based
property-name: Emax (%)

(1) COCCOc1nc(N)c2nc(O)n(Cc3ccc(C(=O)N[C@H]4C(O)O[C@H](CO)[C@@H](O)[C@@H]4O)cc3)c2n1 (stereo partly specified)
(2) COCCOc1nc(N)c2nc(O)n(Cc3ccc(C(=O)NC4O[C@H](CO)[C@@H](O[C@@H]5O[C@H](CO)[C@H](O)[C@H](O)[C@H]5O)[C@H](O)[C@H]4O)cc3)c2n1 (stereo partly specified)
Higher Emax between 1 and 2 ? Give the chosen item's label as your response.
2

---

- target: Toll-like receptor 7 (Mus musculus, UniProt P58681)
- Sequence (P58681 whole entry): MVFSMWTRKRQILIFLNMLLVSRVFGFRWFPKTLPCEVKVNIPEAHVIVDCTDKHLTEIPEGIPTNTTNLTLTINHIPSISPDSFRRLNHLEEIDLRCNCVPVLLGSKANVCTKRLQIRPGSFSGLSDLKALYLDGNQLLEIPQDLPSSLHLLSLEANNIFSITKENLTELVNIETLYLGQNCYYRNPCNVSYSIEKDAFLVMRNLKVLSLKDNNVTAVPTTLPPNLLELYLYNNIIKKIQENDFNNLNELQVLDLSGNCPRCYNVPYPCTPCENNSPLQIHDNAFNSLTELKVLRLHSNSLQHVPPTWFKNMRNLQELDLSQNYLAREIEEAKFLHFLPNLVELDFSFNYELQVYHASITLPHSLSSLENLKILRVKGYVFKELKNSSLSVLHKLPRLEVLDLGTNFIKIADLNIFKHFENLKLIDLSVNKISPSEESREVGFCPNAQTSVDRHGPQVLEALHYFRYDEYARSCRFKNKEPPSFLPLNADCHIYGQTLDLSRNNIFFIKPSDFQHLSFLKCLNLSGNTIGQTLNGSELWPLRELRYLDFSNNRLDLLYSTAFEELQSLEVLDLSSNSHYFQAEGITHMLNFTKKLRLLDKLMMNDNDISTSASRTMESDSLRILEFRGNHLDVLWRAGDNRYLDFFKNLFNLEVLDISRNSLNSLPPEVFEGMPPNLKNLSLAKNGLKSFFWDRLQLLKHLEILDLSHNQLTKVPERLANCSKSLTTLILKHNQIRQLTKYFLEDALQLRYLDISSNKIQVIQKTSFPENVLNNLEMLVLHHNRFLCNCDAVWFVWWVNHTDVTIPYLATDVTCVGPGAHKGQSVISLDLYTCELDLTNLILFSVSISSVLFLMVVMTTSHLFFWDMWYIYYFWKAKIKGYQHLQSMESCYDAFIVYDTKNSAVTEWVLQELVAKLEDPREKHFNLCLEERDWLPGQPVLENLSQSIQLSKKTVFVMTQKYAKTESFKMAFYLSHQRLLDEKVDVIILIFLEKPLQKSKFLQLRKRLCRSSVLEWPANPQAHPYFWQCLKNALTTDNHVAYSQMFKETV
- assay-protocol: Agonist activity at TLR7 in mouse RAW264.7 cells assessed as immunostimulatory activity by measuring increase in TNFalpha secretion incubated for 6 hrs in absence of actin polymerization inhibitor cytochalasin D by ELISA
- Type: cell-based
pEC50: −log10 of the molar value.
property-name: pEC50

(P) COCCOc1nc(N)c2[nH]c(=O)n(Cc3ccc(C(=O)O)cc3)c2n1
(Q) COCCOc1nc(N)c2nc(O)n(Cc3ccc(C(=O)NC4O[C@H](CO)[C@@H](O[C@H]5O[C@H](CO)[C@@H](O)[C@H](O)[C@H]5O)[C@H](O)[C@H]4O)cc3)c2n1 (stereo partly drawn)
(R) COCCOc1nc(N)c2nc(O)n(Cc3ccc(C(=O)NC4O[C@H](CO)[C@@H](O)[C@H](O)[C@H]4O)cc3)c2n1 (stereo partly drawn)
Which order do these items fall in when sorted by pEC50 from largest to smallest? Sort the labels as requested; that list is your answer.
Q, R, P
(Q: 6.56, R: 6.31, P: 5.67)
